testedTarget: BRD4 BD1 (Homo sapiens, UniProt O60885)
protocolText: AlphaScreen binding assay, BRD4 Bromodomain 1
Procedure: The binding of Example compounds to BRD4 Bromodomain 1 and BRD4 Bromodomain 2 was assessed using 384-well AlphaScreen assay technology. His-epitope tagged BRD4 BD144-168 and BRD4 BD2333-460 were cloned, expressed, and purified to homogeneity. BRD4 BD1 and BRD4 BD2 binding and inhibition was assessed by monitoring the engagement of biotinylated Histone H4 (1-21) K5/8/12/16 tetra-acetylated peptide with the targets using the AlphaScreen technology (PerkinElmer). […]
pIC50: −log10 of the molar value.

compound	pIC50
CC(=O)N1c2ccc(-c3ccc(N(C)S(C)(=O)=O)cc3)cc2N(C(=O)C2CC2)C[C@@H]1C [Example I-350]	5.00 to 6.00
CC(=O)N1c2ccc(-c3cnn(C4COC4)c3)cc2N(C(=O)OC2CC3CC3C2)C[C@@H]1C (stereo partly shown) [Example I-74]	> 7.00
CC(=O)N1c2ccc(-c3cccc(-n4cccn4)c3)cc2N(C(=O)c2ccco2)C[C@@H]1C [Example I-853]	6.00 to 7.00
CC(=O)N1c2ccc(-c3ccc(-c4ncco4)cc3)cc2N(C(=O)c2ccco2)C[C@@H]1C [Example I-412]	5.00 to 6.00
CC(=O)N1c2ccc(-c3ccc(S(=O)(=O)N(C)C)c(C)c3)cc2N(C(=O)C2CC2)C[C@@H]1C [Example I-1300]	6.00 to 7.00
CC(=O)N1c2ccccc2N(Cc2cc(C(F)(F)F)cc(C(F)(F)F)c2)C[C@@H]1C [Example I-900]	< 5.00
COc1cccc(S(=O)(=O)N2C[C@H](C)N(C(C)=O)c3ccccc32)c1 [Example I-945]	< 5.00
